- test.system: 229E Mpro (Human coronavirus 229E)
- Sequence (P0C6X1 2966-3267): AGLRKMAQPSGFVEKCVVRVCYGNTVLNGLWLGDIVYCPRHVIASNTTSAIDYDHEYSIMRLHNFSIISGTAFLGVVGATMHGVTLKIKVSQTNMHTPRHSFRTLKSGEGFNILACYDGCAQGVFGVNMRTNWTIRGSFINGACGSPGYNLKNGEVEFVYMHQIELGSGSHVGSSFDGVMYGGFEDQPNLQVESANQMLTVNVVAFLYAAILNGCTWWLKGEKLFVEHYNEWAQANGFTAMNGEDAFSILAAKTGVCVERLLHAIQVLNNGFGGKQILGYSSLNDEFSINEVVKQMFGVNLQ
- procedure.text: 229E Mpro enzymatic assay (standard methods, SARS-CoV2 Mpro assay given as exemplary)
- Format: biochemical, human coronavirus (HCov) 229E
- condition.info: 229E Mpro EC50
pEC50: −log10 of the molar value.
measurement.name: pEC50

Example entries begin here.
* CN(C)CCNC(=O)C(c1cccnc1)N(C(=O)[C@H]1CCCN1C#N)c1ccc(C(C)(C)C)cc1 (single isomer, unassigned) [Compound 435 Isomer 1] | > 5.70
* CN1CC(C(=O)N(c2ccc(S(F)(F)(F)(F)F)cc2)C(C(=O)NC2CCC(F)(F)CC2)c2cncc(F)c2)N(C#N)CC1=O (stereo not drawn) [Compound 1161] | > 5.70
* COC(C)(C)CNC(=O)C(c1cccnc1)N(C(=O)[C@H]1CCCN1C#N)c1ccc(C(C)(C)C)cc1 (single isomer, unassigned) [Compound 427 Isomer 2] | > 5.70
* CC(C)(C)c1ccc(N(C(=O)[C@H]2C[C@@H](O)CN2C#N)C(C(=O)Nc2c(Cl)cccc2Cl)c2cccnc2)cc1 (stereo partly drawn) | 5.00 to 5.70
* N#CN1C[C@@H]2C[C@@H]2[C@@H]1C(=O)N(c1ccc(S(F)(F)(F)(F)F)cc1)C(C(=O)NC1CCC(F)(F)CC1)c1cncc(F)c1 (single isomer, unassigned) [1096 Isomer 1] | > 5.70
* CN(C)C(=O)CNC(=O)C(c1cccnc1)N(C(=O)[C@H]1CCCN1C#N)c1ccc(C(C)(C)C)cc1 (stereo partly drawn) | > 5.70
* CC1(C)CN(C#N)[C@@H](C(=O)N(c2ccc(S(F)(F)(F)(F)F)cc2)C(C(=O)NC2CCC(F)(F)CC2)c2cncc(F)c2)CO1 (single isomer, unassigned) [1086b Isomer 1] | > 5.70
* CC1(C)CN(C#N)[C@@H](C(=O)N(c2ccc(C(C)(C)C)cc2)C(C(=O)NC2CCOCC2)c2cccnc2)CO1 (single isomer, unassigned) [1141 Isomer 1] | 4.52 to 5.00
* CC(C)(C)c1ccc(N(C(=O)[C@H]2CCCN2C#N)C(C(=O)NC2CCCCC2)c2cncc(F)c2)cc1 (single isomer, unassigned) [475 Isomer 2] | 5.00 to 5.70
* CO[C@@H]1C[C@H](C(=O)N(c2ccc(C(C)(C)C)cc2)C(C)(C(=O)NC2CCC(F)(F)CC2)c2cccnc2)N(C#N)C1 (single isomer, unassigned) [1232 Isomer 1] | 5.00 to 5.70

Query: Param item = CC(C)(C)OC(=O)N1CCC[C@@H]1C(=O)N(c1ccc(C(C)(C)C)cc1)C(C(=O)NC1CCCCC1)c1cccnc1 (single isomer, unassigned) [Compound 131a] ; retrieve measured pEC50.
Response: < 4.52

Query: Param item = Cc1ccncc1C(C(=O)NC1CCC(F)(F)CC1)N(C(=O)[C@H]1C[C@@](C)(O)CN1C#N)c1ccc(S(F)(F)(F)(F)F)cc1 (stereo partly drawn) [Compound 993c] ; retrieve measured pEC50.
Response: > 5.70

Query: Param item = CC(C)(C)c1ccc(N(C(=O)[C@H]2CCC(C)(C)N2C#N)C(C(=O)NC2CCCCC2)c2cccnc2)cc1 (single isomer, unassigned) [Compound 262 Isomer 2] ; retrieve measured pEC50.
Response: > 5.70

Query: Param item = C[C@H]1CN(C#N)[C@H]1C(=O)N(c1ccc(S(F)(F)(F)(F)F)cc1)C(C(=O)NC1CCC(F)(F)CC1)c1cncc(F)c1 (single isomer, unassigned) [1210 Isomer 1] ; retrieve measured pEC50.
Response: > 5.70

Query: Param item = CC(C)(C)c1ccc(N(C(=O)C2CCC(F)(F)CN2C#N)C(C(=O)NC2CCCCC2)c2cccnc2)cc1 (single isomer, unassigned) [885 Isomer 2] ; retrieve measured pEC50.
Response: > 5.70

Query: Param item = Cc1nc[nH]c1C(C(=O)NC1CCC(F)(F)CC1)N(C(=O)[C@H]1C[C@@](C)(O)CN1C#N)c1ccc(S(F)(F)(F)(F)F)cc1 (single isomer, unassigned) [1324 Isomer 1] ; retrieve measured pEC50.
Response: 4.52 to 5.00
